FYI, the data here is from patent US20240270821A1.

- study-system: human GcgR (Homo sapiens, UniProt P47871)
- Sequence (P47871 26-477): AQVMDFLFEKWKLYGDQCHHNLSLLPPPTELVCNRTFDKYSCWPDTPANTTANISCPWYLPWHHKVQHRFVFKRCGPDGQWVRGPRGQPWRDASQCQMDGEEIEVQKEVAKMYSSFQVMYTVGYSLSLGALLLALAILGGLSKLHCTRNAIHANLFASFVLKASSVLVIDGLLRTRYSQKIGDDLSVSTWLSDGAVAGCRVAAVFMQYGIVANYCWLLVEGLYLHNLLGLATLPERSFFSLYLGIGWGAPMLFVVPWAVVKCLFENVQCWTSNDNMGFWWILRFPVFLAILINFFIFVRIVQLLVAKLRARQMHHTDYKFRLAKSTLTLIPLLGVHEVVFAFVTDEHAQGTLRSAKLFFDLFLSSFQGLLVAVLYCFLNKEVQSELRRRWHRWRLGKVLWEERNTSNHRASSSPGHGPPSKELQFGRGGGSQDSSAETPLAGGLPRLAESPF
- experiment-notes: Functional cAMP activity in the presence of 1% HSA
- Assay type: cell-based
- condition-set: read-out: cAMP Rel EC50, hGcgR
pEC50: −log10 of the molar value. Starred links: 1 amine or outer side, 2 acyl side, 3 side chain; linkers in the order of their positions; H or OH if unused. Non-standard residues stand in square brackets, D forms with d. Groups on a side chain read outwards from the residue. *: point of attachment. C18 diacid = O=C(O)CCCCCCCCCCCCCCCCC(=O)*; αMePhe(2-F) = C[C@](N)(Cc1ccccc1F)C(=O)O; γGlu = O=C(O)[C@H](CCC(=O)[*:2])N[*:1]; αMe4Pal = C[C@](N)(Cc1ccncc1)C(=O)O; αMeY = C[C@](N)(Cc1ccc(O)cc1)C(=O)O; 4Pal = N[C@@H](Cc1ccncc1)C(=O)O; αMeL = CC(C)C[C@](C)(N)C(=O)O; Orn = NCCC[C@H](N)C(=O)O; AEEA = NCCOCCOCC(=O)O; Aib = CC(C)(N)C(=O)O

{"substance": "H-Y[Aib]QGTFTSD[4Pal]SQ[αMeL]LD[Orn]K([AEEA-γGlu-C18 diacid])AQ[αMe4Pal]AFIE[αMeY]LIA[Aib]GPSSGAPPPSGSEE-NH2 [Example 1110]", "pEC50": 6.35}
{"substance": "H-Y[Aib]QGTFTSD[4Pal]SK[αMeL]LDKK([AEEA-γGlu-C18 diacid])AQ[Aib]AFIEYLIE[Aib]GPSSGAPPPSGS-NH2 [Example 801]", "pEC50": 5.92}
{"substance": "H-Y[Aib]QGT[αMePhe(2-F)]TSD[4Pal]SI[αMeL]LD[Orn]K([γGlu-γGlu-C18 diacid])AQ[αMe4Pal][Orn]FI[dE][αMeY]LIEGGPSSGEPPPEGTE-NH2 [Example 687]", "pEC50": 6.80}
